Examples of compounds with documented IC50 follow.
- systemName: HCV polymerase (Hepatitis C virus genotype 1b, UniProt P26663)
- Construct: a region encoding NS5B (J Virol 1991 March, 65(3), 1105-13, 544 amino acids after deletion of 47 amino acids on the C-terminal); 6xHis (C); made in house; host or cells: Escherichia coli
- Sequence (P26663 2420-2963): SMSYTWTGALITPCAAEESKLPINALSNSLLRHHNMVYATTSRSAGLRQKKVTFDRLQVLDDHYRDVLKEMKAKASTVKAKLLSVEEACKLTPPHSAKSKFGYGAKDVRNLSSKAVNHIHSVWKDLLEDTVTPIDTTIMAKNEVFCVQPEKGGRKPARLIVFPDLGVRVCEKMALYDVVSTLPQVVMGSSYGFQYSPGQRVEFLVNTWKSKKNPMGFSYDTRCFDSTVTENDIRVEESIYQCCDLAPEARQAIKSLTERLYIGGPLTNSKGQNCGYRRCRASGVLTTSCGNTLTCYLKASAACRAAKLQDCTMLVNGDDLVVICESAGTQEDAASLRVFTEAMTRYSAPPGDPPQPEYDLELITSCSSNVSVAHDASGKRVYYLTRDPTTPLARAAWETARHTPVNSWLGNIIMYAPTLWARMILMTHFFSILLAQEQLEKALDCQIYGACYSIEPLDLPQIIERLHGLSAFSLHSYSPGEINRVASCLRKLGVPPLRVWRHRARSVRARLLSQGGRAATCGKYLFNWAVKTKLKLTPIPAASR
- experimentNotes: biochemical
- Design: species or system HCV BK strain
Where a name gives a salt, the structure may show the parent alone.

Notebook: pull reported IC50 for HCV polymerase (Hepatitis C virus genotype 1b, UniProt P26663), entry CCN1CCN(c2ccc(N3CCCC3=O)cc2COc2ccc3c(c2)OCCn2c-3c(C3CCCCC3)c3ccc(C(=O)O)cc32)CC1 [Example 2-28, dihydrochloride] < 0.1 µM
